These entries and their values trace back to paper PMC11728977.

Target: PKAc (catalytic subunit of PKA, PKAcα 16-351) (Mus musculus)
Test: ADP-Glo kinase assay, Michaelis-Menten kinetics of PKAc phosphorylation of substrates
Settings: ADP-Glo; 3 nM PKAc, 1 mM ATP, 5 mM Mg2+, substrate 0-256 μM, room temperature 30 min, 50 mM Hepes pH 7.4, 150 mM KCl; mean ± SD of n = 3 or 4 biological replicates; less reliable for poor substrates
Label Criterion met when kcat is at or above 2 s⁻¹; otherwise label Criterion not met.

substance: LRRASLG [Kemptide, reference compound]
label: Criterion met

substance: SNADYLTRDWSILG… [EFPreIQ (S1535)]
label: Criterion not met

substance: SRKMAFRAKSKSCHD [Rad S300 peptide]
label: Criterion met

substance: RTLHDIGPEIRRAISGDL [S1718 peptide]
label: Criterion met

substance: RGFLRSASLGRAASFHL [R1979A peptide]
label: Criterion not met

substance: RGFLRSARLGRRASFHL [S1975R peptide]
label: Criterion met
